EXPERIMENTAL_TARGET: mTRPV1 (Mus musculus, UniProt Q704Y3)
Sequence (Q704Y3 whole entry): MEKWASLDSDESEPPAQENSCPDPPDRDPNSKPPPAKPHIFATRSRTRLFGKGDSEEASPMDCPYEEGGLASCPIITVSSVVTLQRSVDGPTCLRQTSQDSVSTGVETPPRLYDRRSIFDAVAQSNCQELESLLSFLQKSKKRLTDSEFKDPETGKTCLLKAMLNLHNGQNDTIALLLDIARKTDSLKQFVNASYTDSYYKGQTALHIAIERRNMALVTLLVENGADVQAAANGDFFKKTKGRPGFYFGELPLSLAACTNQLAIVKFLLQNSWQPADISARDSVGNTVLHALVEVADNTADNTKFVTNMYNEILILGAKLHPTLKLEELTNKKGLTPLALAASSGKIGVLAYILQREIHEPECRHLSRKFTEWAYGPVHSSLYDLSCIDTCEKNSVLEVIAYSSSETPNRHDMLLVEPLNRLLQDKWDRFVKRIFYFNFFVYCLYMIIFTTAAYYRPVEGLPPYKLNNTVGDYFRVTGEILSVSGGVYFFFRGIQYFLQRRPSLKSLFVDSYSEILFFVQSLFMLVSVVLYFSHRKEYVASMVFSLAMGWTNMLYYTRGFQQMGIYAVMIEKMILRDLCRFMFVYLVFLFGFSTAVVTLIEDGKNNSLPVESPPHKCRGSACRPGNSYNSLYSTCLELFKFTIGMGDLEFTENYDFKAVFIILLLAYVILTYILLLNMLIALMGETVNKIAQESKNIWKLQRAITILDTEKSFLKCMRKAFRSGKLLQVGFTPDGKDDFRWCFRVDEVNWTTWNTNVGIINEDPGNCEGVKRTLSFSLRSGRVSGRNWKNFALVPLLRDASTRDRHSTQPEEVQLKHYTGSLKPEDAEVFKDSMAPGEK
ASSAY: Whole-cell patch-clamp of mTRPV1 expressed in HEK293 cells
DETAILS: SEM
OBSERVATION_TYPE: EC50 (nM)
Quick note: give the figure in nM, leave out the unit.

Q: Returns the measured EC50 for the input compound. Input: COc1cc(CNC(=O)CCCC/C=C/C(C)C)ccc1O [capsaicin, reference compound]
Ans: 214

Source: paper PMC4589873
